biological target: CYP2C19 (Homo sapiens, UniProt P33261); test: Inhibition of CYP2C19 in human liver microsomes at 10 uM after 40 mins in presence of NADPH by LC-MS/MS analysis; assay type: ADME
Sequence (P33261 whole entry): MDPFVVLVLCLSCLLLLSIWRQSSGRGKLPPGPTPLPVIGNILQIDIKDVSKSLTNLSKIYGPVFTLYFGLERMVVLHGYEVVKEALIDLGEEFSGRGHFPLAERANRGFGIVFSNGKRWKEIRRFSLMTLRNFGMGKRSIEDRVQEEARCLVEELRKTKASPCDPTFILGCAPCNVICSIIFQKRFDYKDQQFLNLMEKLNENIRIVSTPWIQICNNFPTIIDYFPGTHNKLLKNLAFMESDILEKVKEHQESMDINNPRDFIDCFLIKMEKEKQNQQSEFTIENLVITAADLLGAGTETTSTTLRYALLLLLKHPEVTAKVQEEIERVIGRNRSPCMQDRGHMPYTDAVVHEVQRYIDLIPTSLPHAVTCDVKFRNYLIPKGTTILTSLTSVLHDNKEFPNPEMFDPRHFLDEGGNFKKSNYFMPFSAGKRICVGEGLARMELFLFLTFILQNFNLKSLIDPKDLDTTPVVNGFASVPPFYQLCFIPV
propertyMeasured: inhibition at 40 min, 10 µM (%)
Your answer should be a plain number; it is taken to be in %.

Here's what some known entries look like.
**Query** Report inhibition at 40 min, 10 µM for `Cc1cccc(Cl)c1Nc1nc2cc(C(=O)Nc3cc(C(F)(F)F)ccc3F)c3c(c2[nH]1)CC(C)(C)O3` please.
**Result** 16

**Query** Report inhibition at 40 min, 10 µM for `Cc1cccc(Cl)c1Nc1nc2cc(C(=O)Nc3cc(C4CC4)ccc3F)c3c(c2[nH]1)CC(C)(C)O3` please.
**Result** 24

**Query** Report inhibition at 40 min, 10 µM for `Cn1c(Nc2c(F)cccc2Cl)nc2cc(C(=O)Nc3ccc(C(F)(F)F)cn3)c3c(c21)CC(C)(C)O3` please.
**Result** 10

In the following, a different compound is considered.
**Query** Report inhibition at 40 min, 10 µM for `Cn1c(Nc2c(F)cccc2Cl)nc2cc(C(=O)Nc3ccc(C(F)(F)F)cc3)c3c(c21)CC(C)(C)O3` please.
**Result** -7

###

test: Protein binding in cynomolgus monkey plasma at 10 uM after 5 hrs by equilibrium dialysis based LC-MS/MS analysis; assay type: ADME, cell-free, Macaca fascicularis; conditions: read-out: PPB (converted)
propertyMeasured: fraction unbound at 5 h, 10 µM
Reply with just the number.

**Query** Report fraction unbound at 5 h, 10 µM for `CC1(C)Cc2c(c(C(=O)Nc3ccc(F)c(C(F)(F)F)c3)cc3nc(Nc4c(F)cccc4Cl)[nH]c23)O1` please.
**Result** 0.0052

In the following, a different molecule is considered.
**Query** Report fraction unbound at 5 h, 10 µM for `CC1(C)Cc2c(c(C(=O)Nc3ccc(C(F)(F)F)cn3)cc3nc(Nc4c(Cl)cccc4Cl)[nH]c23)O1` please.
**Result** 0.005

###

molecular target: CYP1A2 (Homo sapiens); test: Inhibition of CYP1A2 in human liver microsomes at 10 uM after 20 mins in presence of NADPH by LC-MS/MS analysis; format: ADME
Sequence (P05177 whole entry): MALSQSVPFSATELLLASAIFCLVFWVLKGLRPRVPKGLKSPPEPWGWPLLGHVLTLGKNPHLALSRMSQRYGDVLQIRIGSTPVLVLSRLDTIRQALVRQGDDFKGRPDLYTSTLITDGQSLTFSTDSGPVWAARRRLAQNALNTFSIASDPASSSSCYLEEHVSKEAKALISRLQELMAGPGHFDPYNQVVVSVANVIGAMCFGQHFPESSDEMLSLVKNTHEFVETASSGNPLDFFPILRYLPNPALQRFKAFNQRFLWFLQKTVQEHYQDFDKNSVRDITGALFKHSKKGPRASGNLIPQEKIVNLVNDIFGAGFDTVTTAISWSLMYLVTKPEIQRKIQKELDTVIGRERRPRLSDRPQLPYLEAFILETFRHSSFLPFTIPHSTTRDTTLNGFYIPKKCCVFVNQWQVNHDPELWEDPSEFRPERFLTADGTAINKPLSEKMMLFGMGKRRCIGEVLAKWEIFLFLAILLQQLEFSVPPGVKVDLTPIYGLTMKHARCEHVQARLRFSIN
Classification field: satisfied = inhibition at 20 min, 10 µM at or over 30%; not satisfied = inhibition at 20 min, 10 µM under 30%.

Here's what some known entries look like.
**Query** Check this compound for inhibition at 20 min, 10 µM at or above 30%: `Cc1cccc(Cl)c1Nc1nc2cc(C(=O)Nc3cc(C(F)(F)F)ccc3F)c3c(c2[nH]1)CC(C)(C)O3`
**Result** not satisfied

**Query** Check this compound for inhibition at 20 min, 10 µM at or above 30%: `CC1(C)Cc2c(c(C(=O)Nc3cc(C(F)F)ccc3F)cc3nc(Nc4c(F)cccc4Cl)[nH]c23)O1`
**Result** satisfied

Continuing:
**Query** Check this compound for inhibition at 20 min, 10 µM at or above 30%: `CC1(C)Cc2c(c(C(=O)Nc3ccc(F)c(C(F)(F)F)c3)cc3nc(Nc4c(F)cccc4Cl)[nH]c23)O1`
**Result** not satisfied

**Query** Check this compound for inhibition at 20 min, 10 µM at or above 30%: `Cn1c(Nc2c(F)cccc2Cl)nc2cc(C(=O)Nc3ccc(C(F)(F)F)cc3)c3c(c21)CC(C)(C)O3`
**Result** satisfied

###

assay: Plasma concentration in Dunkin-Hartley guinea pig LPS-induced hyperalgesia pain model at 100 mg/kg, po administered 2 hrs prior to LPS challenge measured 7 hrs post dose; assay type: ADME, organism-based, Cavia porcellus
propertyMeasured: concentration at 7 h (nM)
Your answer should be a plain number; it is taken to be in nM.

**Query** Report concentration at 7 h for `CC1(C)Cc2c(c(C(=O)Nc3ccc(F)c(C(F)(F)F)c3)cc3nc(Nc4c(F)cccc4Cl)[nH]c23)O1` please.
**Result** 1080

###

test: Apparent volume of distribution in Sprague-Dawley rat at 1 mg/kg, iv; type: ADME, organism-based; details: in vivo, read-out: Vz
propertyMeasured: Vd (L/kg)
Your answer should be a plain number; it is taken to be in L/kg.

**Query** Report Vd for `Cc1cccc(Cl)c1Nc1nc2cc(C(=O)Nc3cc(C(F)(F)F)ccc3F)c3c(c2[nH]1)CC(C)(C)O3` please.
**Result** 4.84

**Query** Report Vd for `CC1(C)Cc2c(c(C(=O)Nc3ccc(C(F)(F)F)cn3)cc3nc(Nc4c(Cl)cccc4Cl)[nH]c23)O1` please.
**Result** 3.77

In the following, a different compound is considered.
**Query** Report Vd for `CC1(C)Cc2c(c(C(=O)Nc3ccc(F)c(C(F)(F)F)c3)cc3nc(Nc4c(F)cccc4Cl)[nH]c23)O1` please.
**Result** 3.85

###

target: Prostaglandin E synthase 2 (Homo sapiens) (UniProt Q9H7Z7); test: Inhibition of mPGES2 in A23187-stimulated human THP1 cells assessed as decrease in PGE2 production at 10 uM using arachidonic acid as substrate relative to control
Sequence (Q9H7Z7 whole entry): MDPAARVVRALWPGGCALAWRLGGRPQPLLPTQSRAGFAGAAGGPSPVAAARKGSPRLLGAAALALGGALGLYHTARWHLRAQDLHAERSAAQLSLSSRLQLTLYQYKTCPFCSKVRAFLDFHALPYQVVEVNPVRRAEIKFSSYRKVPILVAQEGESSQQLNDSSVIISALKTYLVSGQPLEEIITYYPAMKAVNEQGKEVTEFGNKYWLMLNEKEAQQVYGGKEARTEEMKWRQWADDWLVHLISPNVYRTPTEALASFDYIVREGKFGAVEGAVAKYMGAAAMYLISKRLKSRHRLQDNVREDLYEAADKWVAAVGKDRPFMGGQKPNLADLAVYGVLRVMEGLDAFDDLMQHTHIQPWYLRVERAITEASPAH
Classification field: condition met = inhibition at or over 10%; condition not met = inhibition under 10%.

**Query** Check this molecule for inhibition at or above 10%: `CC1(C)Cc2c(c(C(=O)Nc3ccc(C(F)(F)F)cn3)cc3nc(Nc4c(Cl)cccc4Cl)[nH]c23)O1`
**Result** condition not met

**Query** Check this molecule for inhibition at or above 10%: `Cc1cccc(Cl)c1Nc1nc2cc(C(=O)Nc3cc(C(F)(F)F)ccc3F)c3c(c2[nH]1)CC(C)(C)O3`
**Result** condition met

**Query** Check this molecule for inhibition at or above 10%: `CC1(C)Cc2c(c(C(=O)Nc3cc(C(F)(F)F)ccc3F)cc3nc(Nc4c(F)cccc4Cl)[nH]c23)O1`
**Result** condition met

**Query** Check this molecule for inhibition at or above 10%: `CC1(C)Cc2c(c(C(=O)Nc3ccc(F)c(C(F)(F)F)c3)cc3nc(Nc4c(F)cccc4Cl)[nH]c23)O1`
**Result** condition met

**Query** Check this molecule for inhibition at or above 10%: `Cc1cccc(Cl)c1Nc1nc2cc(C(=O)Nc3cc(C(F)F)ccc3F)c3c(c2[nH]1)CC(C)(C)O3`
**Result** condition not met

Continuing:
**Query** Check this molecule for inhibition at or above 10%: `Cn1c(Nc2c(F)cccc2Cl)nc2cc(C(=O)Nc3cccc(C(F)(F)F)c3)c3c(c21)CC(C)(C)O3`
**Result** condition not met

###

target: CYP2C9 (Homo sapiens); experiment: Inhibition of CYP2C9 in human liver microsomes at 10 uM after 20 mins in presence of NADPH by LC-MS/MS analysis; type: ADME
Sequence (P11712 whole entry): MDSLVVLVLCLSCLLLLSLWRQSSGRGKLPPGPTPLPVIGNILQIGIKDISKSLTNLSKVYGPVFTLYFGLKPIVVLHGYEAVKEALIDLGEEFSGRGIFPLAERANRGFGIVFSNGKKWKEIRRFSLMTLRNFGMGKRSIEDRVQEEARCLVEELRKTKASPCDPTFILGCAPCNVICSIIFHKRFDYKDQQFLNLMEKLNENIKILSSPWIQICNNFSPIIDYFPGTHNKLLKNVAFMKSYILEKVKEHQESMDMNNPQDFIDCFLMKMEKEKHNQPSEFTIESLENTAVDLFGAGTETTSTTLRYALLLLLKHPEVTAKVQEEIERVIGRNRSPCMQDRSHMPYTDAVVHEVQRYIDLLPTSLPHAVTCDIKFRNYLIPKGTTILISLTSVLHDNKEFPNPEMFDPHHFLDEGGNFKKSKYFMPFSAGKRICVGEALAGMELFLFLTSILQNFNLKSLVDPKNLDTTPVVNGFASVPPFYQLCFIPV
propertyMeasured: inhibition at 20 min, 10 µM (%)
Your answer should be a plain number; it is taken to be in %.

Here's what some known entries look like.
**Query** Report inhibition at 20 min, 10 µM for `CC1(C)Cc2c(c(C(=O)Nc3ccc(C(F)(F)F)cc3F)cc3nc(Nc4c(F)cccc4Cl)[nH]c23)O1` please.
**Result** 39

**Query** Report inhibition at 20 min, 10 µM for `CC1(C)Cc2c(c(C(=O)Nc3ccccc3C(F)(F)F)cc3nc(Nc4c(F)cccc4Cl)[nH]c23)O1` please.
**Result** 29

Continuing:
**Query** Report inhibition at 20 min, 10 µM for `Cc1cc(C(F)(F)F)ccc1NC(=O)c1cc2nc(Nc3c(F)cccc3Cl)[nH]c2c2c1OC(C)(C)C2` please.
**Result** 1

**Query** Report inhibition at 20 min, 10 µM for `Cn1c(Nc2c(F)cccc2Cl)nc2cc(C(=O)Nc3cccc(C(F)(F)F)c3)c3c(c21)CC(C)(C)O3` please.
**Result** 19

###

target: Prostaglandin F synthase (Homo sapiens); assay: Inhibition of human PGF synthase assessed as decrease in PGF2alpha production
propertyMeasured: pIC50
// returns pIC50 (minus log10 of molar concentration), number only

Here's what some known entries look like.
**Query** Value wanted: pIC50 (Prostaglandin F synthase (Homo sapiens)) of entry `CC1(C)Cc2c(c(C(=O)Nc3ccc(F)c(C(F)(F)F)c3)cc3nc(Nc4c(F)cccc4Cl)[nH]c23)O1`
**Result** 5.63

**Query** Value wanted: pIC50 (Prostaglandin F synthase (Homo sapiens)) of entry `Cn1c(Nc2c(F)cccc2Cl)nc2cc(C(=O)Nc3cccc(C(F)(F)F)c3)c3c(c21)CC(C)(C)O3`
**Result** 5.50

In the following, a different compound is considered.
**Query** Value wanted: pIC50 (Prostaglandin F synthase (Homo sapiens)) of entry `CC1(C)Cc2c(c(C(=O)Nc3cc(C(F)(F)F)ccc3F)cc3nc(Nc4c(F)cccc4Cl)[nH]c23)O1`
**Result** 5.61

###

Listed below: Kp values for each entry.
assay: Ratio of drug uptake in brain to plasma of Sprague-Dawley rat at 10 mg/kg, po; assay type: ADME, organism-based; details: read-out: BPR
Reply with just the number.

Here's what some known entries look like.
**Query** Report Kp for `Cc1cccc(Cl)c1Nc1nc2cc(C(=O)Nc3cc(C(F)(F)F)ccc3F)c3c(c2[nH]1)CC(C)(C)O3` please.
**Result** 0.04

**Query** Report Kp for `CC1(C)Cc2c(c(C(=O)Nc3ccc(F)c(C(F)(F)F)c3)cc3nc(Nc4c(F)cccc4Cl)[nH]c23)O1` please.
**Result** 0.18

In the following, a different molecule is considered.
**Query** Report Kp for `CC1(C)Cc2c(c(C(=O)Nc3ccc(C(F)(F)F)cn3)cc3nc(Nc4c(Cl)cccc4Cl)[nH]c23)O1` please.
**Result** 0.16
